Molecular target: Adenosine receptor A2b (Homo sapiens)
Assay: Displacement of [3H]DPCPX from human adenosine A2B receptor expressed in HEK293 cells
Format: cell-based
Details: read-out: Log Ki (converted)
quantity.name: Ki (nM)

[[record]]
compound = "COCCn1c(=O)c2[nH]c(-c3ccc(OCC(=O)N4CCc5ccccc5C4)cc3)cc2n(CCOC)c1=O"
quantity_name = "Ki"
u = "nM"
obs_value = 17

[[record]]
compound = "CN1CCN(C(=O)COc2ccc(-c3cc4c([nH]3)c(=O)n(C)c(=O)n4C)cc2)CC1"
quantity_name = "Ki"
u = "nM"
obs_value = 174

[[record]]
compound = "Cn1c(=O)c2[nH]c(-c3ccc(OCC(=O)N4CCN(c5ccc(O)cc5)CC4)cc3)cc2n(C)c1=O"
quantity_name = "Ki"
u = "nM"
obs_value = 27.5

[[record]]
compound = "CCCn1c(=O)c2[nH]c(-c3ccc(OC(C)C(=O)N4CCN(c5ccccc5)CC4)cc3)cc2n(CCC)c1=O (stereo not given)"
quantity_name = "Ki"
u = "nM"
obs_value = 6.61

[[record]]
compound = "CCCn1c(=O)n(C)c(=O)c2[nH]c(-c3ccc(OCC(=O)N4CCN(c5cccc(Cl)c5)CC4)cc3)cc21"
quantity_name = "Ki"
u = "nM"
obs_value = 6.03

[[record]]
compound = "Cn1c(=O)c2[nH]c(-c3ccc(OCC(=O)N4CCC(O)(c5ccc(Cl)cc5)CC4)cc3)cc2n(C)c1=O"
quantity_name = "Ki"
u = "nM"
obs_value = 2.88

[[record]]
compound = "CCn1c(=O)c2[nH]c(-c3ccc(OCC(=O)N4CCN(c5ccccc5)CC4)cc3)cc2n(CC)c1=O"
quantity_name = "Ki"
u = "nM"
obs_value = 25.7

[[record]]
compound = "Cn1c(=O)c2[nH]c(-c3ccc(OCC(=O)N4CCN(c5ccccc5)CC4)cc3)cc2n(C)c1=O"
quantity_name = "Ki"
u = "nM"
obs_value = 5.25

[[record]]
compound = "Cn1c(=O)c2[nH]c(-c3ccc(OCC(=O)N4CCN(Cc5ccccc5)CC4)cc3)cc2n(C)c1=O"
quantity_name = "Ki"
u = "nM"
obs_value = 53.7

[[record]]
compound = "CCCn1c(=O)c2[nH]c(-c3ccc(OCC(=O)N4CCN(c5c(Cl)cncc5Cl)CC4)cc3)cc2n(CCC)c1=O"
quantity_name = "Ki"
u = "nM"
obs_value = 7.59

[[record]]
compound = "CC(Oc1ccc(-c2cc3c([nH]2)c(=O)n(C)c(=O)n3C)cc1)C(=O)N1CCN(c2ccc(Br)cc2)CC1 (stereo not given)"
quantity_name = "Ki"
u = "nM"
obs_value = 8.13

[[record]]
compound = "Cn1c(=O)c2[nH]c(-c3ccc(OCC(=O)N4CCC(c5ccccc5)(c5ccccc5)CC4)cc3)cc2n(C)c1=O"
quantity_name = "Ki"
u = "nM"
obs_value = 9.55

[[record]]
compound = "Cn1c(=O)c2[nH]c(-c3ccc(OCC(=O)N4CCC(c5ccccc5)CC4)cc3)cc2n(C)c1=O"
quantity_name = "Ki"
u = "nM"
obs_value = 12.3

[[record]]
compound = "CCCn1c(=O)n(C)c(=O)c2[nH]c(-c3ccc(OCC(=O)N4CCN(c5ccc(F)cc5)CC4)cc3)cc21"
quantity_name = "Ki"
u = "nM"
obs_value = 15.1

[[record]]
compound = "CCCn1c(=O)c2[nH]c(-c3ccc(OCC(=O)N4CCN(c5ccccc5)CC4)cc3)cc2n(C)c1=O"
quantity_name = "Ki"
u = "nM"
obs_value = 13.2


* * *

Molecular target: UniProt P29275
Sequence (P29275 whole entry): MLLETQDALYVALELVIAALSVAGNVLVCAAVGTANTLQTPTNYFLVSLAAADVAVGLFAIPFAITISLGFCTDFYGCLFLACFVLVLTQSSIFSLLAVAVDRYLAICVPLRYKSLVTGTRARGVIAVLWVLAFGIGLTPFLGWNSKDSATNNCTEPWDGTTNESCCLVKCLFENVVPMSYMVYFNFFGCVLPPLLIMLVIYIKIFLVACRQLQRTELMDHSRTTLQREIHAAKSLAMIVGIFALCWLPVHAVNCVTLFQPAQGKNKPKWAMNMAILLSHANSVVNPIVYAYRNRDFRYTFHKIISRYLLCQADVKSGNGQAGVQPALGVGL
Experiment: Displacement of [3H]DPCPX from human adenosine A2B receptor expressed in HEK293 cells
Type: cell-based
Settings: read-out: Log Ki (converted)
quantity.name: Ki (nM)

[[record]]
compound = "CCCn1c(=O)c2[nH]c(-c3ccc(OCC(=O)N4CCc5ccccc5C4)cc3)cc2n(CCC)c1=O"
obs_value = 2.29

[[record]]
compound = "Cn1c(=O)c2[nH]c(-c3ccc(OCC(=O)N4CCN(c5ccc(F)cc5)CC4)cc3)cc2n(C)c1=O"
obs_value = 9.55

[[record]]
compound = "COc1cc(OCC(=O)N2CCC(c3ccccc3)CC2)ccc1-c1cc2c([nH]1)c(=O)n(C)c(=O)n2C"
obs_value = 891

[[record]]
compound = "Cn1c(=O)c2[nH]c(-c3ccc(OCC(=O)N4CCN(c5ccc(Cl)cc5)CC4)cc3)cc2n(C)c1=O"
obs_value = 3.39

[[record]]
compound = "CCCn1c(=O)c2[nH]c(-c3ccc(OCC(=O)N4CCN(C(c5ccccc5)c5ccccc5)CC4)cc3)cc2n(CCC)c1=O"
obs_value = 51.3

[[record]]
compound = "O=C(COc1ccc(-c2cc3c([nH]2)c(=O)n(CC2CC2)c(=O)n3CC2CC2)cc1)N1CCN(c2ccccc2)CC1"
obs_value = 11.7

[[record]]
compound = "COc1ccccc1N1CCN(C(=O)COc2ccc(-c3cc4c([nH]3)c(=O)n(C)c(=O)n4C)cc2)CC1"
obs_value = 51.3

[[record]]
compound = "Cn1c(=O)c2[nH]c(-c3ccc(OC(C)(C)C(=O)N4CCN(c5ccccc5)CC4)cc3)cc2n(C)c1=O"
obs_value = 31.6

[[record]]
compound = "COc1ccc(C2CCN(C(=O)COc3ccc(-c4cc5c([nH]4)c(=O)n(C)c(=O)n5C)cc3OC)CC2)cc1"
obs_value = 30.9

[[record]]
compound = "Cn1c(=O)c2[nH]c(-c3ccc(OCC(=O)N4CCN(c5ccc(C(F)(F)F)cc5)CC4)cc3)cc2n(C)c1=O"
obs_value = 4.17

[[record]]
compound = "CCCn1c(=O)c2[nH]c(-c3ccc(OCC(=O)N4CCN(c5ccc(C(F)(F)F)cc5)CC4)cc3)cc2n(CCC)c1=O"
obs_value = 4.17

[[record]]
compound = "Cn1c(=O)c2[nH]c(-c3ccc(OCC(=O)N4CCC(C(=O)c5ccc(F)cc5)CC4)cc3)cc2n(C)c1=O"
obs_value = 11.2

[[record]]
compound = "CCCn1c(=O)c2[nH]c(-c3ccc(OCC(=O)N4CCN(C(=O)OCc5ccccc5)CC4)cc3)cc2n(CCC)c1=O"
obs_value = 38.9

[[record]]
compound = "Cn1c(=O)c2[nH]c(-c3ccc(OCC(=O)N4CCN(c5ccccc5Cl)CC4)cc3)cc2n(C)c1=O"
obs_value = 6.31

[[record]]
compound = "CCCn1c(=O)c2[nH]c(-c3ccc(OCC(=O)N4CCN(c5nc6ccc(Cl)cc6s5)CC4)cc3)cc2n(CCC)c1=O"
obs_value = 10.5

[[record]]
compound = "CCCn1c(=O)c2[nH]c(-c3ccc(OC(C)C(=O)N4CCc5ccccc5C4)cc3)cc2n(CCC)c1=O (stereo unspecified)"
obs_value = 4.68


* * *

Biological target: Adenosine receptor A2b (Homo sapiens, UniProt P29275)
Sequence (P29275 whole entry): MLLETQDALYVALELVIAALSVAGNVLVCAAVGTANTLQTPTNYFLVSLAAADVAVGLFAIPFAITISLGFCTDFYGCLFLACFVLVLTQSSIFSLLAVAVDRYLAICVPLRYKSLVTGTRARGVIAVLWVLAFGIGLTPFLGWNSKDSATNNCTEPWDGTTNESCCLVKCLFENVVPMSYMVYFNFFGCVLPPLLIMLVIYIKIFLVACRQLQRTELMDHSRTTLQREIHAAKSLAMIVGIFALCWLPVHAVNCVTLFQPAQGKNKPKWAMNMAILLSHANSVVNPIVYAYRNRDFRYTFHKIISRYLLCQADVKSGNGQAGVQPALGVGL
Test: Displacement of [3H]DPCPX from human adenosine A2B receptor expressed in HEK293 cells
Assay type: cell-based
Details: read-out: Log Ki (converted)
quantity.name: log10 of Ki (log10 of the value in nM)

[[record]]
molecule = "Cn1c(=O)c2[nH]c(-c3ccc(OCC(=O)N4CCN(c5nc6cc(Cl)ccc6s5)CC4)cc3)cc2n(C)c1=O"
target_or_test_system = "Adenosine receptor A2b (Homo sapiens, UniProt P29275)"
quantity_name = "log10 of Ki"
obs_value = 0.56

[[record]]
molecule = "CC(Oc1ccc(-c2cc3c([nH]2)c(=O)n(C)c(=O)n3C)cc1)C(=O)N1CCN(c2ccccc2)CC1 (stereo not drawn)"
target_or_test_system = "Adenosine receptor A2b (Homo sapiens, UniProt P29275)"
quantity_name = "log10 of Ki"
obs_value = 1.31

[[record]]
molecule = "Cn1c(=O)c2[nH]c(-c3ccc(OCC(=O)N4CCN(c5ccc(C#N)cc5)CC4)cc3)cc2n(C)c1=O"
target_or_test_system = "Adenosine receptor A2b (Homo sapiens, UniProt P29275)"
quantity_name = "log10 of Ki"
obs_value = 0.80

[[record]]
molecule = "CCCn1c(=O)c2[nH]c(-c3ccc(OCC(=O)N4CCN(Cc5ccccc5)CC4)cc3)cc2n(CCC)c1=O"
target_or_test_system = "Adenosine receptor A2b (Homo sapiens, UniProt P29275)"
quantity_name = "log10 of Ki"
obs_value = 0.79

[[record]]
molecule = "Cn1c(=O)c2[nH]c(-c3ccc(OCC(=O)N4CCN(c5ccc(Br)cc5)CC4)cc3)cc2n(C)c1=O"
target_or_test_system = "Adenosine receptor A2b (Homo sapiens, UniProt P29275)"
quantity_name = "log10 of Ki"
obs_value = 0.54

[[record]]
molecule = "CCCn1c(=O)c2[nH]c(-c3ccc(OCC(=O)N4CCC(c5ccccc5)CC4)cc3)cc2n(CCC)c1=O"
target_or_test_system = "Adenosine receptor A2b (Homo sapiens, UniProt P29275)"
quantity_name = "log10 of Ki"
obs_value = 1.32

[[record]]
molecule = "O=C(COc1ccc(-c2cc3c([nH]2)c(=O)n(CC2CC2)c(=O)n3CC2CC2)cc1)N1CCc2ccccc2C1"
target_or_test_system = "Adenosine receptor A2b (Homo sapiens, UniProt P29275)"
quantity_name = "log10 of Ki"
obs_value = 0.98

[[record]]
molecule = "COc1cc(-c2cc3c([nH]2)c(=O)n(C)c(=O)n3C)ccc1OCC(=O)N1CCN(c2ccccc2)CC1"
target_or_test_system = "Adenosine receptor A2b (Homo sapiens, UniProt P29275)"
quantity_name = "log10 of Ki"
obs_value = 1.76

